details: in isopropanol, 303.05 K
Metric name: solubility (mole fraction)

>>> measured_value("Cc1c(N(C)CS(=O)(=O)[O-])c(=O)n(-c2ccccc2)n1C.O.[Na+]")
0.0005

----------
conditions: in isopropanol, 313.05 K
Metric name: solubility (mole fraction)

>>> measured_value("Cc1c(N(C)CS(=O)(=O)[O-])c(=O)n(-c2ccccc2)n1C.O.[Na+]")
0.0008

----------
details: in sec-butanol, 298.15 K
Metric name: solubility (mole fraction)

>>> measured_value("Cc1c(N(C)CS(=O)(=O)[O-])c(=O)n(-c2ccccc2)n1C.O.[Na+]")
0.0003

----------
conditions: in acetone, 298.15 K
Metric name: solubility (mole fraction)

>>> measured_value("Cc1c(N(C)CS(=O)(=O)[O-])c(=O)n(-c2ccccc2)n1C.O.[Na+]")
0.0001

----------
settings: in water, 323.05 K
Metric name: solubility (mole fraction)

>>> measured_value("Cc1c(N(C)CS(=O)(=O)[O-])c(=O)n(-c2ccccc2)n1C.O.[Na+]")
0.0782

----------
conditions: in ethyl acetate, 318.05 K
Metric name: solubility (mole fraction)

>>> measured_value("Cc1c(N(C)CS(=O)(=O)[O-])c(=O)n(-c2ccccc2)n1C.O.[Na+]")
0.0003

----------
conditions: in acetone, 318.05 K
Metric name: solubility (mole fraction)

>>> measured_value("Cc1c(N(C)CS(=O)(=O)[O-])c(=O)n(-c2ccccc2)n1C.O.[Na+]")
0.0003

----------
conditions: in sec-butanol, 293.15 K
Metric name: solubility (mole fraction)

>>> measured_value("Cc1c(N(C)CS(=O)(=O)[O-])c(=O)n(-c2ccccc2)n1C.O.[Na+]")
0.0002

----------
settings: in isopropanol, 332.85 K
Metric name: solubility (mole fraction)

>>> measured_value("Cc1c(N(C)CS(=O)(=O)[O-])c(=O)n(-c2ccccc2)n1C.O.[Na+]")
0.0016

----------
settings: in methanol, 303.05 K
Metric name: solubility (mole fraction)

>>> measured_value("Cc1c(N(C)CS(=O)(=O)[O-])c(=O)n(-c2ccccc2)n1C.O.[Na+]")
0.0363

----------
conditions: in water, 303.05 K
Metric name: solubility (mole fraction)

>>> measured_value("Cc1c(N(C)CS(=O)(=O)[O-])c(=O)n(-c2ccccc2)n1C.O.[Na+]")
0.0615

----------
details: in isopropanol, 323.05 K
Metric name: solubility (mole fraction)

>>> measured_value("Cc1c(N(C)CS(=O)(=O)[O-])c(=O)n(-c2ccccc2)n1C.O.[Na+]")
0.0011

----------
conditions: in sec-butanol, 327.95 K
Metric name: solubility (mole fraction)

>>> measured_value("Cc1c(N(C)CS(=O)(=O)[O-])c(=O)n(-c2ccccc2)n1C.O.[Na+]")
0.0016

----------
settings: in ethyl acetate, 308.05 K
Metric name: solubility (mole fraction)

>>> measured_value("Cc1c(N(C)CS(=O)(=O)[O-])c(=O)n(-c2ccccc2)n1C.O.[Na+]")
0.0002

----------
conditions: in ethanol, 323.05 K
Metric name: solubility (mole fraction)

>>> measured_value("Cc1c(N(C)CS(=O)(=O)[O-])c(=O)n(-c2ccccc2)n1C.O.[Na+]")
0.0073

----------
settings: in methyl acetate, 293.15 K
Metric name: solubility (mole fraction)

>>> measured_value("Cc1c(N(C)CS(=O)(=O)[O-])c(=O)n(-c2ccccc2)n1C.O.[Na+]")
0.0001
